The following compounds are listed with their measured LOGP_NEUTRAL values.
# assayInfo: log P by HPLC on reversed-phase column (C 18), EEC Directive 79/831 Annex V.A8
# Type: physicochemical
# protocolConditions: log P, neutral range; HPLC on reversed-phase column (C 18), 55° C.

{"compoundSmiles": "CC(C)C(=O)Nc1cc(-c2ccc(C(F)(F)F)cc2)cc(C(=O)NCc2c(F)cc(C#N)cc2F)n1", "LOGP_NEUTRAL": 4.05}
{"compoundSmiles": "N#Cc1ccc(CNC(=O)c2cc(-c3ccc(CC(F)(F)F)cc3)cc(NC(=O)C3CC3)n2)cc1", "LOGP_NEUTRAL": 3.00}
{"compoundSmiles": "CC(C)CNC(=O)c1cc(-c2ccc(C(F)(F)F)cc2)cc(NC(=O)C2CC2)n1", "LOGP_NEUTRAL": 3.98}
{"compoundSmiles": "CCNC(=O)c1cc(-c2ccc(OC(F)(F)F)cc2)cc(NC(=O)C2CC2)n1", "LOGP_NEUTRAL": 3.33}
